The origin of these recorded values is patent US20220143222A1.

# experiment notes: MB-102 pig plasma concentration after IV dosing
# Assay type: in vivo
# test settings: Yorkshire, plasma, 3.2 mg/kg; pig 48019, IV, 3.2 mpk, 75 min; read-out: MB-102 Pig Plasma Conc.
readout kind: concentration at 75 min (µg/mL)
Supply the numeric figure in µg/mL, leaving out any unit text.

## Input Look up and report measured concentration at 75 min for this entry: `Nc1nc(C(=O)N[C@H](CO)C(=O)O)c(N)nc1C(=O)N[C@H](CO)C(=O)O`
## Output 5.43

----------
# experiment notes: MB-102 pig plasma concentration after subcutaneous dosing
# Type: in vivo
# test settings: Yorkshire, pig, plasma, subcutaneous, 3.2 mg/kg, pig 53701, SubQ, 3.2 mpk, 120 min; read-out: MB-102 Pig Plasma Conc.
# Protocol: Juvenile Yorkshire pigs weighing approximately 25 kg were anesthetized, their body temperature stabilized, and an IV port surgically placed. […] After the skin was dry the sensors were attached with commercially available skin adhesive and background skin auto-fluorescence measurements were recorded. […] At this point glomerular elimination of MB-102 by the kidneys led to a decrease of fluorescence signal over time. […]
readout kind: concentration at 120 min (ng/mL)
Could you give me the number in ng/mL? Just the number is fine.

## Input State its concentration at 120 min: `Nc1nc(C(=O)N[C@H](CO)C(=O)O)c(N)nc1C(=O)N[C@H](CO)C(=O)O`
## Output 3670
